Molecular target: Estrogen receptor (Homo sapiens)
Sequence (P03372 whole entry): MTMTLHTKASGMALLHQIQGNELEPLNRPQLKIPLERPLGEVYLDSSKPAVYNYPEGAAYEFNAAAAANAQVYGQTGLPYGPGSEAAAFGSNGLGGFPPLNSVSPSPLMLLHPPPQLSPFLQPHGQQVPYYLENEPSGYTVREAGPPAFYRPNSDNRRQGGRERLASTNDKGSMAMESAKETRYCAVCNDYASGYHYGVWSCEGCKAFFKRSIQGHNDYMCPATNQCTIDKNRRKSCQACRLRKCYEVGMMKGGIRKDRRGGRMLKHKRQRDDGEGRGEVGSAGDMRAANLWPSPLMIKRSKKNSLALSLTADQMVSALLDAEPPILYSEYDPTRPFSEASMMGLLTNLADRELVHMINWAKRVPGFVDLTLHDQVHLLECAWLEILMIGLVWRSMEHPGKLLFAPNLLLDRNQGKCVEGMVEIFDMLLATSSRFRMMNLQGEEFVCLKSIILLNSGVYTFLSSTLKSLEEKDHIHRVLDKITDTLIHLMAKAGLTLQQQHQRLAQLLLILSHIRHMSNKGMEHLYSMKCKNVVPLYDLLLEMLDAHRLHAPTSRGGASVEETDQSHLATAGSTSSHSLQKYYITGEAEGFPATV
Provide the recorded IC50 for the entries that follow.

So, C[C@]12CCC3C(CC=C4C[C@@H](O)CC[C@@]43C=O)C1CC[C@@H]2O (some centres undefined) ? Its IC50 was > 10 µM

So, C[C@]12CCC3C(CC=C4C[C@@H](O)CC[C@@]43/C=C\Br)C1CC[C@@H]2O (some centres undefined) ? Its IC50 was > 10 µM

So, CO/C=C/[C@]12CC[C@H](O)CC1=CCC1C2CC[C@@]2(C)C1CC[C@@H]2O (some centres undefined) ? Its IC50 was > 10 µM

So, CC#C[C@]12CC[C@H](O)CC1=CCC1C2CC[C@@]2(C)C1CC[C@@H]2O (some centres undefined) ? Its IC50 was > 8.42 µM

So, C=C[C@]12CC[C@H](O)CC1=CCC1C2CC[C@@]2(C)C1CC[C@]2(C)O (some centres undefined) ? Its IC50 was 1.05 µM

So, C[C@]12CCC3C(CC=C4C[C@@H](O)CC[C@@]43CC=O)C1CC[C@@H]2O (some centres undefined) ? Its IC50 was > 1 µM

So, C=CC[C@]12CC[C@H](O)CC1=CCC1C2CC[C@@]2(C)C1CC[C@@H]2O (some centres undefined) ? Its IC50 was 1.74 µM

So, C=C[C@]12CC[C@H](O)CC1=CCC1C2CC[C@@]2(C)C1CC[C@@H]2O (some centres undefined) ? Its IC50 was 2.24 µM

So, C/C=C\[C@]12CC[C@H](O)CC1=CCC1C2CC[C@@]2(C)C1CC[C@@H]2O (some centres undefined) ? Its IC50 was 1.96 µM

So, C[C@]12CCC3C(CC=C4C[C@@H](O)CC[C@@]43/C=C/F)C1CC[C@@H]2O (some centres undefined) ? Its IC50 was 4.16 µM

So, CO/C=C\[C@]12CC[C@H](O)CC1=CCC1C2CC[C@@]2(C)C1CC[C@@H]2O (some centres undefined) ? Its IC50 was 3.35 µM

So, C[C@]12CCC3C(CC=C4C[C@@H](O)CC[C@@]43/C=C/Cl)C1CC[C@@H]2O (some centres undefined) ? Its IC50 was 5.6 µM

So, C/C=C/[C@]12CC[C@H](O)CC1=CCC1C2CC[C@@]2(C)C1CC[C@@H]2O (some centres undefined) ? Its IC50 was 1.16 µM

So, C[C@]12CCC3C(CC=C4C[C@@H](O)CC[C@@]43CO)C1CC[C@@H]2O (some centres undefined) ? Its IC50 was 6.32 µM

So, C#CC[C@]12CC[C@H](O)CC1=CCC1C2CC[C@@]2(C)C1CC[C@@H]2O (some centres undefined) ? Its IC50 was 4.64 µM

So, CCC[C@]12CC[C@H](O)CC1=CCC1C2CC[C@@]2(C)C1CC[C@@H]2O (some centres undefined) ? Its IC50 was 5.16 µM

So, CC/C=C\[C@]12CC[C@H](O)CC1=CCC1C2CC[C@@]2(C)C1CC[C@@H]2O (some centres undefined) ? Its IC50 was 3.04 µM

So, C[C@]12CCC3C(CC=C4C[C@@H](O)CC[C@@]43/C=C\Cl)C1CC[C@@H]2O (some centres undefined) ? Its IC50 was 6.69 µM

So, C=C[C@]12CCC(=O)C=C1CCC1C2CC[C@@]2(C)C1CC[C@@H]2O (some centres undefined) ? Its IC50 was > 10 µM
